experimental.details: Minimum cytotoxic concentration required to cause a microscopically detectable alteration of normal cell morphology
Type: functional
recorded.endpoint: MCC

Cl.Cn1cc(NC(=O)c2cc(NC(=O)C3CC3)cn2C)cc1C(=O)NCCC(=N)N	100 µg/mL
Cl.Cn1cc(NC(=O)c2cc(NC(=O)CCCCl)cn2C)cc1C(=O)NCCC(=N)N	> 200 µg/mL
Cl.Cl.Cn1cc(NC(=O)c2cc(NC(=O)CNC(=N)N)cn2C)cc1C(=O)NCCC(=N)N	> 400 µg/mL
Cl.Cl.Cn1cc(NC(=O)c2cc(NC(=O)c3cc(NC=O)cn3C)cn2C)cc1C(=O)NCCC(=N)N	> 200 µg/mL
Cl.Cn1cc(NC(=O)c2cc(NC(=O)C(Cl)(Cl)Cl)cn2C)cc1C(=O)NCCC(=N)N	> 100 µg/mL

Input Cl.Cn1cc(NC(=O)c2cc(NC(=O)CF)cn2C)cc1C(=O)NCCC(=N)N . Output MCC: > 200 µg/mL

Input CC[N+](CC)(CC)CC.Cn1cc(NC(=O)c2cc(NC(=O)C(Cl)Cl)cn2C)cc1C(=O)NCCC(=N)N.O=S(=O)([O-])O . Output MCC: 200 µg/mL

Input Cl.Cn1cc(NC(=O)c2cc(NC(=O)CCl)cn2C)cc1C(=O)NCCC(=N)N . Output MCC: ≥ 100 µg/mL
